Target: human PCSK9 (Homo sapiens)
Assay: PCSK9 ligand binding TR-FRET assay (interference with binding of human PCSK9 to human LDLR)
Conditions: TR-FRET; human PCSK9 Alexa Fluor 647 / human LDLR extracellular domain-Europium Kryptate; read-out: PCSK9 FRET Assay IC50
Method: The PCSK9 binding of the compounds of the disclosure were measured using a time resolved fluorescence resonance energy transfer (TR-FRET) assay. This time resolved fluorescence resonance energy transfer (TR-FRET) assay measures the ability of a compound of the present disclosure to interfere with the binding of human PCSK9 to human LDLR, providing measures of both potency (IC50) and efficacy (Amax). […] Data is expressed as percent inhibition: (value−0%)/(100%−0%).
measurement_kind: IC50 (nM)

{"compound": "COC[C@@H]1NC(=O)[C@H](C)N(Cc2ccc(Cl)cc2Oc2ccc(-c3cnc(CN(C)C)n3C)cc2)C(=O)C[C@@H](Cc2cccc(C)n2)C(=O)N(C)[C@H]2CCCC[C@@H]2NC(=O)C[C@H](Cc2ccc(Cl)cc2)N(C)C1=O [Compound 265]", "result_units": "nM", "experimental_value": 312}
{"compound": "COC[C@@H]1NC(=O)[C@H](C)N(Cc2ccc(Cl)cc2Oc2ccc(-c3cnc(CN(C)C)n3C)cc2)C(=O)C[C@@H](Cc2ccc(F)c(F)c2F)C(=O)N(C)[C@@H](C)CNC(=O)C[C@H](Cc2ccc(Cl)cc2)N(C)C1=O [Compound 33]", "result_units": "nM", "experimental_value": 1.3}
{"compound": "COC[C@@H]1NC(=O)[C@H](C)N(Cc2ccc(Cl)cc2Oc2ccc(-c3cnc(CN(C)C)n3C)cc2)C(=O)C[C@@H](Cc2ccccc2)C(=O)N(C)CC(C)(C)NC(=O)C[C@H](Cc2ccc(Cl)cc2)N(C)C1=O [Compound 65]", "result_units": "nM", "experimental_value": 189}
{"compound": "COC[C@@H]1NC(=O)[C@H](C)N(Cc2ccc(Cl)cc2Oc2ccc(-c3cnc4n3CCN(C(=O)[C@@H]3CCOC3)C4)cc2)C(=O)C[C@@H](Cc2ccccc2)C(=O)N(C)[C@@H](C)CNC(=O)C[C@H](Cc2ccc(Cl)cc2)N(C)C1=O [Compound 171]", "result_units": "nM", "experimental_value": 3.1}
{"compound": "C[C@H]1CNC(=O)C[C@H](Cc2ccc(Cl)cc2)N(C)C(=O)[C@H](Cc2nnn[nH]2)NC(=O)[C@H](C)N(Cc2ccc(Cl)cc2Oc2ccc(-c3cnc(CN(C)C)n3C)cc2)C(=O)C[C@@H](Cc2ccccc2)C(=O)N1C [Compound 148]", "result_units": "nM", "experimental_value": 29.2}
{"compound": "CCc1ccc(CN2C(=O)C[C@@H](Cc3ccccc3)C(=O)N(C)[C@H]3CCCC[C@@H]3NC(=O)C[C@H](Cc3ccc(Cl)cc3)N(C)C(=O)[C@H](COC)NC(=O)[C@@H]2C)c(Oc2ccc(-c3cnc(CN4CC5(COC5)C4)n3C)cc2)c1 [Compound 23]", "result_units": "nM", "experimental_value": 2.2}
{"compound": "CC[C@H]1C(=O)N[C@@H](COC)C(=O)N(C)[C@@H](Cc2ccc(Cl)cc2)CC(=O)NC[C@H](C)N(C)C(=O)[C@H](C)CC(=O)N1Cc1ccc(Cl)cc1Oc1ccc(-c2cnc(CN(C)C)n2C)cc1 [Compound 173]", "result_units": "nM", "experimental_value": 73.3}
{"compound": "COC[C@@H]1NC(=O)[C@H](CCCN(C)C)N(Cc2ccc(Cl)cc2Oc2ccc(-c3cnc(CN(C)C)n3C)cc2)C(=O)C[C@@H](Cc2ccccc2)C(=O)N(C)[C@H]2CCCC[C@@H]2NC(=O)C[C@H](Cc2ccc(Cl)cc2)N(C)C1=O [Compound 291]", "result_units": "nM", "experimental_value": 1.6}
{"compound": "COC[C@@H]1NC(=O)[C@H](C)N(Cc2ccc(Cl)cc2Oc2ccc(-c3cnc(CN4CCCC4)n3C)cc2)C(=O)C[C@@H](Cc2ccc(F)cc2)C(=O)N(C)[C@@H](C)CNC(=O)C[C@H](Cc2ccc(Cl)cc2)N(C)C1=O [Compound 108]", "result_units": "nM", "experimental_value": 0.7}
{"compound": "COC[C@@H]1NC(=O)[C@H](C)N(Cc2ccc(Cl)cc2Oc2ccc(-c3cnc4n3CCN(C(=O)C(C)C)C4)cc2)C(=O)C[C@@H](Cc2ccccc2)C(=O)N(C)[C@@H](C)CNC(=O)C[C@H](Cc2ccc(Cl)cc2)N(C)C1=O [Compound 132]", "result_units": "nM", "experimental_value": 7.3}
{"compound": "C[C@H]1CNC(=O)C[C@H](Cc2ccc(Cl)cc2)N(C)C(=O)[C@H](CO)NC(=O)[C@H](C)N(Cc2ccc(Cl)cc2Oc2ccc3c(c2)C(=O)N(C2CCN(CC4CC4)CC2)C3)C(=O)C[C@@H](Cc2ccccc2)C(=O)N1C [Compound 139]", "result_units": "nM", "experimental_value": 5.7}
{"compound": "COC[C@@H]1NC(=O)[C@H](CCCNC(=O)OC(C)(C)C)N(Cc2ccc(Cl)cc2Oc2ccc(-c3cnc(CN4CCCC4)n3C)cc2)C(=O)C[C@@H](Cc2ccccc2)C(=O)N(C)[C@H]2CCCC[C@@H]2NC(=O)C[C@H](Cc2ccc(Cl)cc2)N(C)C1=O [Compound 191]", "result_units": "nM", "experimental_value": 2.1}
{"compound": "COC[C@@H]1NC(=O)[C@H](C)N(Cc2ccc(Cl)cc2Oc2ccc(-c3cnc(CN(C)C)n3C)cc2)C(=O)C[C@@H](C)C(=O)N(C)[C@@H](CC2CC2)CNC(=O)C[C@H](Cc2ccc(Cl)cc2)N(C)C1=O [Compound 5]", "result_units": "nM", "experimental_value": 9.6}
{"compound": "COC[C@@H]1NC(=O)[C@H](C)N(Cc2ccccc2Oc2ccc(-c3cnc(CN(C)C)n3C)cc2)C(=O)C[C@@H](Cc2ccccc2)C(=O)N(C)[C@@H](C)CNC(=O)C[C@H](Cc2ccc(Cl)cc2)N(C)C1=O [Compound 9]", "result_units": "nM", "experimental_value": 3.1}
{"compound": "C[C@H]1CNC(=O)C[C@H](Cc2ccc(Cl)cc2)N(C)C(=O)[C@H](COC(F)F)NC(=O)[C@H](C)N(Cc2ccc(Cl)cc2Oc2ccc(-c3cnc(CN(C)C)n3C)cc2)C(=O)C[C@@H](Cc2ccccc2)C(=O)N1C [Compound 170]", "result_units": "nM", "experimental_value": 1.3}
{"compound": "COC[C@@H]1NC(=O)[C@H](CC(=O)O)N(Cc2ccc(Cl)cc2Oc2ccc(-c3cnc(CN(C)C)n3C)cc2)C(=O)C[C@@H](Cc2ccccc2)C(=O)N(C)[C@H]2CCCC[C@@H]2NC(=O)C[C@H](Cc2ccc(Cl)cc2)N(C)C1=O [Compound 219]", "result_units": "nM", "experimental_value": 0.9}

###

target: human PCSK9 (Homo sapiens, UniProt Q8NBP7); assay: PCSK9 ligand binding TR-FRET assay (interference with binding of human PCSK9 to human LDLR); details: PCSK9 FRET assay, efficacy (Amax); 100% = 1 uM unlabeled human PCSK9, 0% = DMSO
Sequence (Q8NBP7 153-692): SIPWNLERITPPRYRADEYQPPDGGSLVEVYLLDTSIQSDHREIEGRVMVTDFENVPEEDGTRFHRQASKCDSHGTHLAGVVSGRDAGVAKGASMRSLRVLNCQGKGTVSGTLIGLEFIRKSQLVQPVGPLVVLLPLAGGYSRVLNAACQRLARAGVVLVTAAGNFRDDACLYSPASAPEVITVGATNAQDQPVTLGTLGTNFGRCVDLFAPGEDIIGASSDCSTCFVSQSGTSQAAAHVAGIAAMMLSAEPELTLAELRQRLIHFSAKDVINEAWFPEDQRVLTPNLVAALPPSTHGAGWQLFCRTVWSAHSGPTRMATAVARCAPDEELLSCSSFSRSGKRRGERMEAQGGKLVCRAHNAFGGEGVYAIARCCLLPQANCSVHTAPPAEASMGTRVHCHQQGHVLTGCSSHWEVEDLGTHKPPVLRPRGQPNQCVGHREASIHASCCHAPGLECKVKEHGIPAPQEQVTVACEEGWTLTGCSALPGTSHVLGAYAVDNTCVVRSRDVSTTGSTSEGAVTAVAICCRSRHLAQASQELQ
Sequence (Q8NBP7 31-152 partner limits assumed): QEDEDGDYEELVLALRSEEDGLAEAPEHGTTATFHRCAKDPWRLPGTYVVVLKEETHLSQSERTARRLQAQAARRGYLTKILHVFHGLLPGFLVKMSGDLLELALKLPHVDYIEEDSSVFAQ

{"molecule": "COC[C@@H]1NC(=O)[C@H](C)N(Cc2ccc(Cl)cc2Oc2ccc(-c3cnc(CN(C)C)n3C)cc2)C(=O)C[C@@H](Cc2cccc(OC(F)F)c2)C(=O)N(C)[C@@H](C)CNC(=O)C[C@H](Cc2ccc(Cl)cc2)N(C)C1=O [Compound 238]", "result_units": "%", "Max % inhibition": 104.90}
{"molecule": "COC[C@@H]1NC(=O)[C@H](C)N(Cc2c(OC)cccc2Oc2ccc(-c3cnc(CN(C)C)n3C)cc2)C(=O)C[C@@H](Cc2ccccc2)C(=O)N(C)[C@@H](C)CNC(=O)C[C@H](Cc2ccc(Cl)cc2)N(C)C1=O [Compound 154]", "result_units": "%", "Max % inhibition": 80.05}
{"molecule": "COC[C@@H]1NC(=O)[C@H](CCN(C)C)N(Cc2ccc(Cl)cc2Oc2ccc(-c3cnc(CN(C)C)n3C)cc2)C(=O)C[C@@H](Cc2ccccc2)C(=O)N(C)[C@H]2CCCC[C@@H]2NC(=O)C[C@H](Cc2ccc(Cl)cc2)N(C)C1=O [Compound 29]", "result_units": "%", "Max % inhibition": 94.90}
{"molecule": "C[C@H]1CNC(=O)C[C@H](Cc2ccc(Cl)cc2)N(C)C(=O)[C@H](C2COC2)NC(=O)[C@H](C)N(Cc2ccc(Cl)cc2Oc2ccc(-c3cnc(CN(C)C)n3C)cc2)C(=O)C[C@@H](Cc2ccccc2)C(=O)N1C [Compound 31]", "result_units": "%", "Max % inhibition": 60.09}
{"molecule": "COC[C@@H]1NC(=O)[C@H](C)N(Cc2ccc(Cl)cc2Oc2ccc(-c3cnc(CN(C)C)n3C)cc2)C(=O)C[C@@H](Cc2ccc(C(F)F)cc2)C(=O)N(C)[C@@H](C)CNC(=O)C[C@H](Cc2ccc(Cl)cc2)N(C)C1=O [Compound 57]", "result_units": "%", "Max % inhibition": 95.83}
{"molecule": "CCC/C=C/c1ncc(-c2ccc(Oc3cc(Cl)ccc3CN3C(=O)C[C@@H](Cc4ccccc4)C(=O)N(C)[C@@H](C)CNC(=O)C[C@H](Cc4ccc(Cl)cc4)N(C)C(=O)[C@H](COC)NC(=O)[C@@H]3C)cc2)n1C [Compound 81]", "result_units": "%", "Max % inhibition": 87.86}
{"molecule": "COC[C@@H]1NC(=O)[C@H](C)N(Cc2ccc(Cl)cc2Oc2ccc(-c3cnc(CN(C)C)n3C)cc2)C(=O)C[C@@H](Cc2ccc(F)c[n+]2[O-])C(=O)N(C)[C@@H](C)CNC(=O)C[C@H](Cc2ccc(Cl)cc2)N(C)C1=O [Compound 180]", "result_units": "%", "Max % inhibition": 102.27}
{"molecule": "COC[C@@H]1NC(=O)[C@@H](C)N(Cc2ccc(Cl)cc2Oc2ccc(-c3cnc(CN(C)C)n3C)cc2)C(=O)C[C@@H](Cc2ccccc2)C(=O)N(C)[C@@H](C)CNC(=O)C[C@H](Cc2ccc(Cl)cc2)N(C)C1=O [Compound 12]", "result_units": "%", "Max % inhibition": 98.09}
